Here the recorded abundance fitness is given for each entry.
B1: Transcription intermediary factor 1-beta, residues 620 to 671; numbered along this chain, Q13263 (parent)
chain: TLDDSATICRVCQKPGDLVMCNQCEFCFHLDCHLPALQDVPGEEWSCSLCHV

- Variants of: B1
- test: abundance fitness (aPCA) (normalised: wild type 0, dead -1); higher = more abundant; growth selection in yeast, the domain comes from the species named
- assaySetup: Homo sapiens
Enter the number alone.

Examples with answers:
mutationNotation | abundance fitness
P15Q | -0.559
P15W | -0.771
T1K | 0.109

Supply recorded abundance fitness for E43Q here.
-0.298

Supply recorded abundance fitness for G16T here.
-0.754

Supply recorded abundance fitness for V19R here.
-0.364

Supply recorded abundance fitness for V19F here.
-0.311

Supply recorded abundance fitness for L2F here.
-0.168

Supply recorded abundance fitness for V40K here.
-0.221

Supply recorded abundance fitness for N22S here.
-0.066

Supply recorded abundance fitness for C50M here.
-0.65

Supply recorded abundance fitness for N22P here.
-0.382

Supply recorded abundance fitness for H33E here.
0.2

Supply recorded abundance fitness for C32R here.
-0.704

Supply recorded abundance fitness for G16R here.
-0.389

Supply recorded abundance fitness for Q38A here.
-0.02

Supply recorded abundance fitness for C50R here.
-0.214

Supply recorded abundance fitness for C32I here.
-0.911

Supply recorded abundance fitness for Q13A here.
-0.322

Supply recorded abundance fitness for P41M here.
-0.303

Supply recorded abundance fitness for F26Q here.
0.082

Supply recorded abundance fitness for L2D here.
-0.078

Supply recorded abundance fitness for Q38Y here.
-0.417
